Each entry below carries its recorded TGI.
Tested on: OVCAR-8 ovarian
Test: NCI tumour cell line growth inhibition, 48 h

{"COMPOUND": "O=C(NN1C(=O)C(Cl)C1c1ccccc1Cl)c1ccccc1O (stereo unspecified)", "TGI": "> 100 µM"}
{"COMPOUND": "C[N+](C)(C)CC(CC(=O)[O-])C1CC1 (stereo unspecified)", "TGI": "> 100 µM"}
{"COMPOUND": "C=CCOCn1ccc(N)nc1=O", "TGI": "> 100 µM"}
{"COMPOUND": "COc1cc(OC)c(F)c(COc2cnc(Nc3cnn(CCO)c3)nc2)c1F", "TGI": "> 100 µM"}

Query: Field: TGI (OVCAR-8 ovarian). Entry: "COc1ccc(-c2nc(-c3cnccn3)n(Cc3ccccc3)n2)cc1"
Reply: > 100 µM

Query: Then what about the compound O=c1ccn(C2(CO)C=C(CO)C(O)C2O)c(=O)[nH]1 (stereo unspecified) ?
Reply: > 25.7 µM

###

System: KM12 colon
Assay: NCI tumour cell line growth inhibition, 48 h
REPORTED_METRIC: TGI

Completed entries (count: 4):
{"COMPOUND": "COc1ccc(C2=NNC(c3cc4cc(Br)ccc4nc3Cl)C2)cc1 (stereo not given)", "REPORTED_RESULT": "> 25 µM"}
{"COMPOUND": "COc1ccc2c(c1)C(=O)c1c-2c(N2CCN(C(=O)CNCCN(C)C)CC2)nc2ccccc12", "REPORTED_RESULT": "4.38 µM"}
{"COMPOUND": "COc1ccc(/C=C\\c2cc(OC)c(OC)c(OC)c2)cc1OCC(=O)Nc1nc2ccccc2s1", "REPORTED_RESULT": "> 100 µM"}
{"COMPOUND": "COc1ccc(N2C(=O)C3c4[nH]c5ccccc5c4C4c5ccccc5CC4C3C2=O)cc1 (stereo not given)", "REPORTED_RESULT": "> 100 µM"}

// moving on: another record for TGI
Query: Give its TGI value. Item: CC1C(C#N)(C#N)C(C#N)=C(N)C1(C)[N+](=O)[O-] (stereo not given)
Reply: > 100 µM

###

Each entry below carries its recorded TGI.
Test system: HCT-116 colon
Assay: NCI tumour cell line growth inhibition, 48 h

Completed entries (count: 3):
{"MOLECULE": "COc1ccc2c(c1)C(=O)c1c-2c(N2CCN(C(=O)CNCCN(C)C)CC2)nc2ccccc12", "SYSTEM": "HCT-116 colon", "TGI": "2.7 µM"}
{"MOLECULE": "Cn1c(COC(=O)NC2CCCCC2)c(COC(=O)NC2CCCCC2)c2ccc3cc(C=O)ccc3c21", "SYSTEM": "HCT-116 colon", "TGI": "> 100 µM"}
{"MOLECULE": "COc1ccc(Cn2c3ccc([N+](=O)[O-])cc3c(=O)n2Cc2ccccn2)cc1", "SYSTEM": "HCT-116 colon", "TGI": "> 100 µM"}

Query: Field: TGI (HCT-116 colon). Entry: "O=c1c2cc(I)ccc2nc(SCc2nnco2)n1Cc1ccccc1"
Reply: > 100 µM

Query: Then what about the molecule "C[C@]12CC[C@H](O)CC1=CC[C@@H]1[C@@H]2CC[C@]2(C)C(=O)/C(=C/c3ccc([N+](=O)[O-])cc3)C[C@@H]12" ?
Reply: 62.3 µM

Query: Then what about the molecule CC1(C)CN=CC(C)(OCc2ccccc2)C(=O)NC(C)(C)CN=CC(C)(OCc2ccccc2)C(=O)N1 (centres undefined) ?
Reply: > 10 µM

Query: Then what about the molecule "COc1cc(O)cc(O)c1C(=O)CC(Cl)(Cl)Cl" ?
Reply: > 100 µM

Query: Then what about the molecule "O=C(Cn1c(C(=O)c2ccc(Cl)cc2)nc(-c2ccccc2)c1-c1ccccc1)c1ccc(Cl)cc1" ?
Reply: > 100 µM

Query: Then what about the molecule O=NN1C(c2ccccc2)CCCC1c1ccccc1 (centres undefined) ?
Reply: > 100 µM

###

Each entry below carries its recorded log10 of TGI.
System: MDA-MB-231 breast
Assay: NCI tumour cell line growth inhibition, 48 h
Reminder: these figures are log10 of reported TGI, in µM before transformation.

Completed entries (count: 9):
{"COMPOUND": "CC(=O)c1ccc2c3c1O[C@H]1c4[nH]c5ccccc5c4C[C@@]4(O)[C@@H](C2)N(CC2CC2)CC[C@]314", "log10 of TGI": 1.41}
{"COMPOUND": "Fc1ccc([C@@H]2CCNC[C@H]2COc2ccc3c(c2)OCO3)cc1", "log10 of TGI": 1.18}
{"COMPOUND": "CCCCCCCCCCCCCCCC(=O)OCC1OC(OC)C(NC(=O)N(CCCl)N=O)C(O)C1O (stereo unspecified)", "log10 of TGI": 1.55}
{"COMPOUND": "Clc1ccc2nc(Cl)c3ccccc3c2c1", "log10 of TGI": 1.52}
{"COMPOUND": "Cc1ccc(-c2cc(-c3ccc(C)cc3)nc(N3CCN(CCNc4ccnc5cc(Cl)ccc45)CC3)n2)cc1", "log10 of TGI": 0.96}
{"COMPOUND": "CCOC(=O)c1ccc(N(C=O)CCC(=O)CCl)cc1", "log10 of TGI": 0.06}
{"COMPOUND": "CC[C@H](C)[C@H](NC(=O)NC(C)(C)C)C(=O)N(C)[C@H](C[C@@H](OC(C)=O)c1nc(C(=O)N[C@@H](Cc2ccccc2)C[C@H](C)C(=O)OC)cs1)C(C)C", "log10 of TGI": 0.47}
{"COMPOUND": "COc1ccc2c(c1)C(=O)c1c-2c(N2CCN(C(=O)CNCCN(C)C)CC2)nc2ccccc12", "log10 of TGI": 0.56}
{"COMPOUND": "CN(C)c1ccc(Nc2c3ccccc3nc3cc(NC(=O)CCN4CCCC4)ccc23)cc1", "log10 of TGI": 0.47}

// moving on: another record for log10 of TGI
Query: Give its log10 of TGI value. Item: CC#CC#C/C=C1\C=CC2(OC=CC2OC(C)=O)O1 (stereo unspecified)
Reply: 1.62

###

System: K-562 leukemia
Test: NCI tumour cell line growth inhibition, 48 h; in the data active = GI50 below about 0.43 µM; inactive = the rest
Select the correct class. Options are active, inactive and nothing else.

Look over these answered cases.
{"SMILES_REPR": "Clc1ccc2nc(Cl)c3ccccc3c2c1", "CAT": "inactive"}
{"SMILES_REPR": "O=c1c2c(=NCCN3CCCC3)cc3c(=O)n(CCCN4CCOCC4)c(=O)c4ccc(c(O)n1CCCN1CCOCC1)c2c4-3", "CAT": "active"}
{"SMILES_REPR": "COc1cc(-c2nc3cc(Cl)c(Cl)cc3[nH]2)ccc1OCC(=O)N=Nc1c(O)[nH]c2ccc(Cl)cc12", "CAT": "active"}
{"SMILES_REPR": "O=C(Oc1ccccc1Cl)c1ccccc1Nc1cccc(C(F)(F)F)c1", "CAT": "inactive"}
{"SMILES_REPR": "CCCCCCCCCCC[C@@H](C[C@H]1OC(=O)[C@H]1CCCCCC)OC(=O)[C@@H](CC(C)C)NC=O", "CAT": "inactive"}

Next up:
Query: Recorded test call requested for "O=C(Nc1ccc(Nc2ccncc2)cc1)c1ccc(Nc2ccnc3ccc([N+](=O)[O-])cc23)cc1[N+](=O)[O-]"
Reply: inactive

###

Each entry below carries its recorded GI50.
Test system: SW-620 colon
Assay: NCI tumour cell line growth inhibition, 48 h

{"COMPOUND": "O=C(Cn1c(C(=O)c2ccc(Cl)cc2)nc(-c2ccccc2)c1-c1ccccc1)c1ccc(Cl)cc1", "REPORTED_RESULT": "> 100000 nM"}
{"COMPOUND": "Fc1cccc(Cl)c1Cn1c(-c2c(F)cccc2Cl)nc2ccccc21", "REPORTED_RESULT": "16800 nM"}
{"COMPOUND": "COc1ccc(/C=N\\NC(=O)c2ccc3nc(-c4ccc(Cl)cc4)[nH]c3c2)cc1", "REPORTED_RESULT": "2410 nM"}
{"COMPOUND": "COc1ccc(/C=C\\c2cc(OC)c(OC)c(OC)c2)cc1OCC(=O)Nc1nc2ccccc2s1", "REPORTED_RESULT": "35.9 nM"}
{"COMPOUND": "COc1cnc2c(c1)C(=O)c1c-2n(CCCNCCN2CCOCC2)c(=O)c2cc([N+](=O)[O-])ccc12", "REPORTED_RESULT": "128 nM"}

Query: Give its GI50 value. Item: O=C1CC(c2ccsc2)c2snc(-c3ccc(Cl)cc3)c2N1 (centres undefined)
Reply: 429 nM

Query: Then what about the compound "Cc1ccc(-c2cc(-c3ccc(C)cc3)nc(N3CCN(CCNc4ccnc5cc(Cl)ccc45)CC3)n2)cc1" ?
Reply: 1820 nM

Query: Then what about the compound "O=C(CCN1CCCC1)Nc1ccc2c(NCCc3ccccc3)c3ccccc3nc2c1" ?
Reply: 300 nM

Query: Then what about the compound "O=C(NO)c1ccc(Cn2c(=O)n(-c3ccccc3)c(=O)c3ccccc32)cc1" ?
Reply: 667 nM
